- experimental.target: human calcium receptor protein (HuPCaR) (Homo sapiens, UniProt P41180)
- Construct: expressed in transfected cells; host or cells: HEK (human embryonic kidney) cells, stably transfected
- Sequence (P41180 20-1078): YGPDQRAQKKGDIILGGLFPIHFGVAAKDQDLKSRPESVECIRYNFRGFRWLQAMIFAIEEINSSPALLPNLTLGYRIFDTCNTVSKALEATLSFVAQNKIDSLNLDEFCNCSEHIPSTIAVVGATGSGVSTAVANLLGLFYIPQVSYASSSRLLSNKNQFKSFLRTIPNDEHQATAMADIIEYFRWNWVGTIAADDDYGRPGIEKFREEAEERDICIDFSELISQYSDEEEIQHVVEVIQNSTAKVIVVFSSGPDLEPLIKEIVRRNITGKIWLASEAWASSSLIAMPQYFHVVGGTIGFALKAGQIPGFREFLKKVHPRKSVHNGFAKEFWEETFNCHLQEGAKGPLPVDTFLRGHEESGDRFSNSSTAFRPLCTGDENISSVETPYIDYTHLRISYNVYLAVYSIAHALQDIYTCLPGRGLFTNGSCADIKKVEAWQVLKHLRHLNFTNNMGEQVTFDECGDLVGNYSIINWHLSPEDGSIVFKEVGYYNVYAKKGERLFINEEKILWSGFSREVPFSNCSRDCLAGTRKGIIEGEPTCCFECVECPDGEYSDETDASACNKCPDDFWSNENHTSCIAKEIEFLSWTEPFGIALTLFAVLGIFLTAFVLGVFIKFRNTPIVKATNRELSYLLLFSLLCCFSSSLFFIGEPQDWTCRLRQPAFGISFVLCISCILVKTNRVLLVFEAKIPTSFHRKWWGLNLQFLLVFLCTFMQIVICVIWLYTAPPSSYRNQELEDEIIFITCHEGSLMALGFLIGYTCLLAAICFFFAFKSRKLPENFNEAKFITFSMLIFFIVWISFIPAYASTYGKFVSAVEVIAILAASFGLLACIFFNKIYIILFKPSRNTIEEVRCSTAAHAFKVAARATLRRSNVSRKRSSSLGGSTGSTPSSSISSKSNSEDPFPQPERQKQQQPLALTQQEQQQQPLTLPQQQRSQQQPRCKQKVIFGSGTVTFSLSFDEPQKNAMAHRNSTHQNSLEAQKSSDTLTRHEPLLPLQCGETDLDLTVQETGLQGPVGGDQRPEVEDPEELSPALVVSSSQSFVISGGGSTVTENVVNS
- test.protocol: FURA2 ratio fluorimetry of HuPCaR cells on stepwise additions of extracellular CaCl2
- Type: cell-based
- applied.conditions: FURA2 response method of Quinn et al.; read-out: EC50 value for Ca^2+ derived using the method outlined in FIG. 20
readout.name: EC50 (mM)
Numeric only. Scale: mM

Task: Please indicate EC50 recorded for [Ca+2].[Cl-].[Cl-]
Output: 3.5
